Values compiled from patent US20230174649A1.

Parameter: macrophage phagocytosis (untreated = 1.00). Scope: all listed entries.
- Tested on: Toledo Cells
- experiment.notes: FACS-based phagocytosis assay, macrophages cocultured with Toledo cells
- Type: cell-based, Human
- measurement.setup: Cpd 0.008 uM, T4J = 0.1 ug/ml, R = 0.01 ug/ml
// no unit, no text: just the number

Some entries whose results are on file:
molecule	observed.result
Nc1ncn([C@@H]2O[C@H](CO)[C@@H](O)[C@H]2O)c(=O)n1	3.18
CC1(C)CCC(CN2CCN(c3ccc(C(=O)NS(=O)(=O)c4ccc(NCC5CCOCC5)c([N+](=O)[O-])c4)c(Oc4cnc5[nH]ccc5c4)c3)CC2)=C(c2ccc(Cl)cc2)C1	3.30
Nc1cccc2c1CN(C1CCC(=O)NC1=O)C2=O (stereo not shown) [Lenalidomide]	3.04

Turning now to a further record.
q: Query (molecule): Cn1c(CCCC(=O)O)nc2cc(N(CCCl)CCCl)ccc21 ; field requested: macrophage phagocytosis (untreated = 1.00)
a: 3.26
